FYI, the data here is from ChEMBL document CHEMBL3039007.

- MEASUREMENT TARGET: Solute carrier organic anion transporter family member 1B3 (Homo sapiens, UniProt Q9NPD5)
- Sequence (Q9NPD5 whole entry): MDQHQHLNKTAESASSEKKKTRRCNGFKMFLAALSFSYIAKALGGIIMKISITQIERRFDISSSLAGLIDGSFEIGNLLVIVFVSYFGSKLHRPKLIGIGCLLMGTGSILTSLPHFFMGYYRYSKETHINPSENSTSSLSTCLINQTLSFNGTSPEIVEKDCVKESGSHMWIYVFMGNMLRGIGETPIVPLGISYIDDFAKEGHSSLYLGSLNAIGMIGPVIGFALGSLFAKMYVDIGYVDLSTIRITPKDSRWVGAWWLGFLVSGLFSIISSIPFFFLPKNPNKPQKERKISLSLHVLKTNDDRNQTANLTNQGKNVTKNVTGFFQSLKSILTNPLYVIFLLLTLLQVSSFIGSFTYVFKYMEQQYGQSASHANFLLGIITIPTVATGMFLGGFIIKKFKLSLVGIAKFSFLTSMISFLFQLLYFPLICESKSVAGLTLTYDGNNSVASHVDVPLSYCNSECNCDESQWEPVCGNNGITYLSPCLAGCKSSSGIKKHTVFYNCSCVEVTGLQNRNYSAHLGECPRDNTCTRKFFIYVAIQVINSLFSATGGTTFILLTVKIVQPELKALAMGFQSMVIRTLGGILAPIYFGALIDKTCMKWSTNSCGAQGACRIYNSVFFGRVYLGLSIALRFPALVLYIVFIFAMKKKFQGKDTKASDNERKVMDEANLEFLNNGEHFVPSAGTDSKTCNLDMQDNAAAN
- MEASUREMENT SETUP: chinese hamster, cho, 10 µM
One threshold, 90%, splits the recorded residual activity values: lower ones are fulfilled, equal or higher ones are not fulfilled.

COMPOUND	CLASS LABEL
Nc1nc(N)c2nc(CNc3ccc(C(=O)N[C@@H](CCC(=O)O)C(=O)O)cc3)cnc2n1 [AMINOPTERIN]	not fulfilled
NC(=O)c1ccc[n+]([C@@H]2O[C@H](COP(=O)([O-])OP(=O)(O)OC[C@H]3O[C@@H](n4cnc5c(N)ncnc54)[C@H](O)[C@@H]3O)[C@@H](O)[C@H]2O)c1 [NADIDE]	not fulfilled
CCCCC1=NC2(CCCC2)C(=O)N1Cc1ccc(-c2ccccc2-c2nnn[nH]2)cc1 [IRBESARTAN]	fulfilled
O=c1cc(-c2ccc(O)cc2)oc2cc(O[C@@H]3O[C@H](CO)[C@@H](O)[C@H](O)[C@H]3O[C@@H]3OC[C@](O)(CO)[C@H]3O)cc(O)c12 [APIIN]	not fulfilled

// next entry
Does the reported residual activity of CC(=O)NCCCCCC(=O)O [ACEXAMIC ACID] stay below 90%? not fulfilled

---

Would you kindly list residual activity for each of these compounds?
- MEASUREMENT TARGET: Solute carrier organic anion transporter family member 1B1 (Homo sapiens, UniProt Q9Y6L6)
- Sequence (Q9Y6L6 whole entry): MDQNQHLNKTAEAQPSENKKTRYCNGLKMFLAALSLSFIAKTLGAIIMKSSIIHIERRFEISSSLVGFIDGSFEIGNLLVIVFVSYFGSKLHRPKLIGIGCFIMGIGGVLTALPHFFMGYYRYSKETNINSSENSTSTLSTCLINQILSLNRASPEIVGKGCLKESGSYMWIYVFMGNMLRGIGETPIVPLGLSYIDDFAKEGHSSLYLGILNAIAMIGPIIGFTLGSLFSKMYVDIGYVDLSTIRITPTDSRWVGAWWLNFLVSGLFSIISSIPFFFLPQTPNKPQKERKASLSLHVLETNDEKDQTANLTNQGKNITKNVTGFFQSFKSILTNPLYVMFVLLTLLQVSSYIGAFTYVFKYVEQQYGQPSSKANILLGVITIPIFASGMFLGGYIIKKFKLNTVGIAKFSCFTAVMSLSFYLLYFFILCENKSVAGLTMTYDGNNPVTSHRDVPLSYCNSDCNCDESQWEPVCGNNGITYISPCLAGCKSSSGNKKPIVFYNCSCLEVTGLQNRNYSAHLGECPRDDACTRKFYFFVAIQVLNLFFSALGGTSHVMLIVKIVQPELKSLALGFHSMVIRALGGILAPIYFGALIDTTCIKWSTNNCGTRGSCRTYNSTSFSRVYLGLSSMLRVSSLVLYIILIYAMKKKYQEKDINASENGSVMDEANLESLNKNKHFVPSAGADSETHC
- MEASUREMENT SETUP: chinese hamster, cho, 10 µM
Answers are plain numbers, in %.

Solved cases below.
COMPOUND	MEASUREMENT TARGET	SCALE UNIT	EXPERIMENTAL VALUE
CCCCSP(=O)(SCCCC)SCCCC [S,S,S,-TRIBUTYLPHOSPHOROTRITHIOATE]	Solute carrier organic anion transporter family member 1B1 (Homo sapiens, UniProt Q9Y6L6)	%	125.7
O[C@@H]1C[C@H]2CCC[C@@H](C1)N2Cc1ccccc1	Solute carrier organic anion transporter family member 1B1 (Homo sapiens, UniProt Q9Y6L6)	%	92.31
CC(C)=CCC/C(C)=C/CC/C(C)=C/CO	Solute carrier organic anion transporter family member 1B1 (Homo sapiens, UniProt Q9Y6L6)	%	89.38
Cc1ccccc1N1C(=O)c2cc(S(N)(=O)=O)c(Cl)cc2NC1C (centres undefined)	Solute carrier organic anion transporter family member 1B1 (Homo sapiens, UniProt Q9Y6L6)	%	62.42
CN[C@@H]1[C@H](O[C@H]2[C@H](O[C@H]3[C@H](O)[C@@H](O)[C@H](N=C(N)N)[C@@H](O)[C@@H]3N=C(N)N)O[C@@H](C)[C@]2(O)C=O)O[C@@H](CO)[C@H](O)[C@H]1O.CN[C@@H]1[C@H](O[C@H]2[C@H](O[C@H]3[C@H](O)[C@@H](O)[C@H](N=C(N)N)[C@@H](O)[C@@H]3N=C(N)N)O[C@@H](C)[C@]2(O)C=O)O[C@@H](CO)[C@H](O)[C@H]1O.O=S(=O)(O)O.O=S(=O)(O)O.O=S(=O)(O)O [STREPTOMYCIN SULFATE]	Solute carrier organic anion transporter family member 1B1 (Homo sapiens, UniProt Q9Y6L6)	%	87.18
COc1ccc(-c2coc3cc(O)cc(O)c3c2=O)cc1	Solute carrier organic anion transporter family member 1B1 (Homo sapiens, UniProt Q9Y6L6)	%	98.38

Parameters: items (list). Returns: residual activity for each item.
1. CC(C)=CC1C(C(=O)OCc2cccc(Oc3ccccc3)c2)C1(C)C (centres undefined)
2. O=C1C=CC(=C(c2ccc(O)cc2)c2ccc(O)cc2)C=C1
3. N=C(N)N

1. 157.5
2. 4.068
3. 106.5
